Cited source: patent US9278068B2

Reported Inflammation (PCC) 80 nM values for a set of molecules
Test system: NF-κB
Assay: NF-κB assay for inflammation (nuclear translocation of NF-κB, immunocytochemistry, PCC)
Conditions: HeLa cells, 80 nM, 2 h; PCC between nuclear and cytoplasmic fraction of NF-κB
Answer using only a numeral; do not append any unit.

Some molecules with recorded Inflammation (PCC) 80 nM:
molecule	assay_system	Inflammation (PCC) 80 nM
O=C(O)c1cc(B(O)O)cc([N+](=O)[O-])c1 [3-carboxy-5-nitrophenylboronic acid]	NF-κB	0.03893
CC(C)OB(CBr)OC(C)C [diisopropyl(bromomethyl)boronate]	NF-κB	0.02739
OB(O)c1ccc(Cl)cc1Cl [2,4-dicholorophenylboronic acid]	NF-κB	0.09386

Request: Any idea what its Inflammation (PCC) 80 nM is? The molecule is CN(C)c1cccc(B(O)O)c1 [3-(N,N-dimethylamino)phenyl boronic acid]
Response: −0.0401

Request: Any idea what its Inflammation (PCC) 80 nM is? The molecule is OB(O)C1=CCCC1 [cyclopenten-1-yl boronic acid]
Response: 0.01168

* * *

System: NF-κB
Assay: NF-κB assay for inflammation (nuclear translocation of NF-κB, immunocytochemistry, PCC)
Details: HeLa cells, 40 nM, 2 h; PCC between nuclear and cytoplasmic fraction of NF-κB
property_label: Inflammation (PCC) 40 nM
Answer using only a numeral; do not append any unit.

Some compounds with recorded Inflammation (PCC) 40 nM:
compound	Inflammation (PCC) 40 nM
OB(O)c1cscc1Br [3-bromothiophene-4-boronic acid]	−0.0695
OB(O)c1cccc2c1Sc1ccccc1S2 [thianthrene-1-boronic acid]	−0.0683

Request: Any idea what its Inflammation (PCC) 40 nM is? The compound is NC(=O)c1cccc(B(O)O)c1 [3-aminocarbonylphenylboronic acid]
Response: −0.0696

* * *

Reported MTT (% Cell Survival) 160 nM values for a set of compounds
System: HeLa cells
Experiment: MTT assay for cytotoxicity
Conditions: 160 nM, 2 h
Numeric answer plus unit only.

Some compounds with recorded MTT (% Cell Survival) 160 nM:
compound	property_label	measurement
CN(C)c1ccc(B(O)O)cc1 [4-(dimethylamino)phenylboronic acid]	MTT (% Cell Survival) 160 nM	51.04%
COc1cccc(OC)c1B(O)O [2,6-dimethoxyphenylboronic acid]	MTT (% Cell Survival) 160 nM	48.60%

Request: Any idea what its MTT (% Cell Survival) 160 nM is? The compound is OB(O)c1ccsc1 [3-thienylboronic acid]
Response: 49.85%

* * *

Test system: NF-κB
Assay: NF-κB assay for inflammation (nuclear translocation of NF-κB, immunocytochemistry, PCC)
Details: HeLa cells, 80 nM, 2 h; PCC between nuclear and cytoplasmic fraction of NF-κB
Using Inflammation (PCC) 80 nM as the sorting value, the categories are low end (below -0.04), middle (-0.04 to below 0.1), high end (0.1 or more)

Solved cases below.
molecule	class_assignment
OB(O)c1c(F)c(F)c(F)c(F)c1F	middle
C=C(B(O)O)c1ccccc1	middle

Request: Which of the defined bands does the recorded Inflammation (PCC) 80 nM of OB(O)c1ccccc1O [2-hydroxyphenylboronic acid] sit within?
Response: low end

Request: Which of the defined bands does the recorded Inflammation (PCC) 80 nM of OB(O)c1cncc(Br)c1 sit within?
Response: high end

Request: Which of the defined bands does the recorded Inflammation (PCC) 80 nM of OB(O)c1ccc(O)cc1 [4-hydroxyphenylboronic acid] sit within?
Response: low end

Request: Which of the defined bands does the recorded Inflammation (PCC) 80 nM of OB(O)/C=C/c1ccccc1 [trans-2-Phenylvinylboronic acid] sit within?
Response: high end

Request: Which of the defined bands does the recorded Inflammation (PCC) 80 nM of COc1ccc(F)cc1B(O)O sit within?
Response: middle

Request: Which of the defined bands does the recorded Inflammation (PCC) 80 nM of OB(O)c1cscc1Br sit within?
Response: high end

Request: Which of the defined bands does the recorded Inflammation (PCC) 80 nM of OB(O)c1cccc2c1oc1ccccc12 sit within?
Response: low end

Request: Which of the defined bands does the recorded Inflammation (PCC) 80 nM of N#Cc1ccc(B(O)O)s1 sit within?
Response: high end

Request: Which of the defined bands does the recorded Inflammation (PCC) 80 nM of OB(O)c1cc(Br)cs1 sit within?
Response: middle
